Molecular target: T1, EsCas13d, nuclease-dead (Eubacterium siraeum, UniProt B0MS50, R295A;H300A;R849A;H854A)
T1 sequence: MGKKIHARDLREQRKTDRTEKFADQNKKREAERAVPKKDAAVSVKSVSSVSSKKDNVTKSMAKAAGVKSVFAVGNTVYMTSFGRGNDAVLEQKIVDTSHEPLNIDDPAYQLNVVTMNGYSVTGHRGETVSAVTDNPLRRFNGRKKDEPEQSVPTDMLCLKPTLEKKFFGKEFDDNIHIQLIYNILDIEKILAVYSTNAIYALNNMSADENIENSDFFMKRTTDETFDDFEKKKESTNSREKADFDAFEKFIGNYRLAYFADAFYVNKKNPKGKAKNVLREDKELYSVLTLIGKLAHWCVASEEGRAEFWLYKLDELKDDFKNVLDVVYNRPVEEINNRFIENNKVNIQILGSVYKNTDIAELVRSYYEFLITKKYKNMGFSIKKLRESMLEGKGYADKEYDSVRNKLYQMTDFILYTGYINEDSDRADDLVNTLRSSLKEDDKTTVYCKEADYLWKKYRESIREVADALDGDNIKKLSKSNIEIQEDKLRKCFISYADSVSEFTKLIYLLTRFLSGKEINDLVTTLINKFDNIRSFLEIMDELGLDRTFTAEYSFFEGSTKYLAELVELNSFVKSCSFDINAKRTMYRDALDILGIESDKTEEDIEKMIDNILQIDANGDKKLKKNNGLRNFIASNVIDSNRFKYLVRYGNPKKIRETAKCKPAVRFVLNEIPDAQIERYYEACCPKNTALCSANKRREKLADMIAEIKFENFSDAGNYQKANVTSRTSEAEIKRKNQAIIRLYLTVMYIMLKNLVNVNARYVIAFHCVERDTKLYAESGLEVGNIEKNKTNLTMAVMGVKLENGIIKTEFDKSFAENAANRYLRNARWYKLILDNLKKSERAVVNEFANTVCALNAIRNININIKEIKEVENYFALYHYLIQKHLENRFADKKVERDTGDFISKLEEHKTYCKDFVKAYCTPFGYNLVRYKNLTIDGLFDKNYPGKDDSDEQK
Assay: crRNA (strand 1, pre-loaded); Mg2+; 40 mM Tris-HCl pH 7.5, 150 mM NaCl, 6 mM MgCl2, 1 mM DTT, 0.1% Tween-20, 0.2 mg/ml BSA; 25 C; 10 min per concentration, then washed
Settings: tags: His6-TwinStrep-SUMO cleaved; N-terminal SNAP kept (SNAP-Surface 488); label: 3' end held by stalled T7 RNA polymerase
Reported Kd is given for each of the following binders.
Answer in nM, number only, no unit symbol.

target 1 MT 5'PFS AGA 3'PFS UUG (mixed) RNA 1: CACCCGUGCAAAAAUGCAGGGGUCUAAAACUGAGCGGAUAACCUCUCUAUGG RNA 2: GGGAAUGGAUCCACAUCUACGAAUUCAGACCAUAGAGAGGUUAUCCGCUCAUUGAGAUCGGAAGAGCACACGU | 50

Consider now this further binder.
Input: What measured Kd goes with target 3 U21C (mixed) RNA 1: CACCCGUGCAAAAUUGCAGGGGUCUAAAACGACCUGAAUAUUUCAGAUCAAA RNA 2: GGGAAUGGAUCCACAUCUACGAAUUCGUUUCUGAUCUGAAAUAUUCAGGUCUGCAGAUCGGAAGAGCACACGU ?
Output: 71
